Measurement protocol: Microsomal Stability Assay, human liver microsomes
Type: in vitro ADME
Condition label: both sexes, pH 7.4; human liver microsomes 0.1 mg/mL, 0.1 uM compound
Reported microsomal CLint at 0.1 uM values are given for each entry in this list.

| Molecule smiles | microsomal CLint at 0.1 uM |
| --- | --- |
| CN1CCN(CCOc2cnc(N[C@H]3CC[C@@H](Oc4nc(N5CCOCC5)cc5ncccc45)CC3)nc2)CC1 | < 116 µL/min/mg |
| O=C(COc1cnc(N[C@H]2CC[C@@H](Oc3nc(N4CCOCC4)cc4ncccc34)CC2)nc1)N1CCNCC1 | < 116 µL/min/mg |
| CN(C)C(=O)COc1cnc(N[C@H]2CC[C@@H](Oc3nc(N4CCOCC4)cc4ncc(NS(C)(=O)=O)cc34)CC2)nc1 | < 116 µL/min/mg |
| NCCOc1cnc(N[C@H]2CC[C@@H](Oc3nc(N4CCOCC4)cc4ncccc34)CC2)nc1 | > 116 µL/min/mg |
| CC(=O)NCCOc1cnc(N[C@H]2CC[C@@H](Oc3nc(N4CCOCC4)cc4ncccc34)CC2)nc1 | > 116 µL/min/mg |
| O=C(COc1cnc(N[C@H]2CC[C@@H](Oc3nc(N4CCOCC4)cc4ncccc34)CC2)nc1)N1CCOCC1 | > 116 µL/min/mg |
| CN1CCN(C(=O)COc2cnc(N[C@H]3CC[C@@H](Oc4nc(N5CCOCC5)cc5ncccc45)CC3)nc2)CC1 | < 116 µL/min/mg |
